Molecular target: thrombin (Homo sapiens, UniProt P00734;P00734 P00734:328-363,P00734:364-622)
Assay: inhibition; TT, plasma alone 16.3 s; about 0.5 uM in human plasma, 37 C
propertyLabel: activity

INSERT INTO results (binder, propertylabel, endpointresult) VALUES
  ('RA 3'' + 3'' fiber (mixed) DNA 1: TCCCTTTAGGGAATGACCCTGAAGTTCATCTGCACCACCGAGGGAAATCCCTTTTTGGTTGGTGTGGTTGGTGGTTGGTGTGGTTGG DNA 2: TTCCCTAAAGGGATGACCCTGAAGTTCATCTGCACCACCGAAGGGATTTCCCTTTTGGTTGGTGTGGTTGGTGGTTGGTGTGGTTGG DNA 3: CGGTGGTGCAGATGAACTTCAGGGTCA', 'activity', '> 60 s');
